B1: MGC27345 (parent)
chain: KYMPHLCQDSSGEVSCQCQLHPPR

Variants of: B1
assay_explanation: protein stability index of a GFP-peptide fusion (GPS, HEK-293T) (PSI 1-6); higher = more stable;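 note: lentivirally expressed fusions sorted by FACS into six bins by GFP to DsRed ratio, PSI derived from sequencing read proportions per bin multiplied by bin number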
condition_details: c terminus: a fixed tail appended
property_name: protein stability index

seq: KYMPHLCQDSSGEVSCQCQLHIPR [P22I]
endpoint_result: 2.03

seq: KYMPHLCQDSSGEVSCQCVLHPPR [Q19V]
endpoint_result: 1.96

seq: KYKPHLCQDSSGEVSCQCQLHPPR [M3K]
endpoint_result: 1.96

seq: KYMPHLCQDSSGEVSCQCQLHSPR [P22S]
endpoint_result: 2.55

seq: KYMPHLCQDSEGEVSCQCQLHPPR [S11E]
endpoint_result: 2.42

seq: KYMPHLCQDSPGEVSCQCQLHPPR [S11P]
endpoint_result: 1.72

seq: KYMPHLCQHSSGEVSCQCQLHPPR [D9H]
endpoint_result: 2.38

seq: KYMPHLCQDSSGEYSCQCQLHPPR [V14Y]
endpoint_result: 2.08

seq: KYMPHLCQDSSGEVSCQQQLHPPR [C18Q]
endpoint_result: 3.6

seq: KYMPHLCQDSSGEVFCQCQLHPPR [S15F]
endpoint_result: 1.67

seq: KYMPHLCQDSNGEVSCQCQLHPPR [S11N]
endpoint_result: 2.55

seq: KYMPHLCQDSDGEVSCQCQLHPPR [S11D]
endpoint_result: 2.13

seq: KYMPHLCCDSSGEVSCQCQLHPPR [Q8C]
endpoint_result: 2.53

seq: KYMPHLCQDSSGEVSCQCSLHPPR [Q19S]
endpoint_result: 2.5

seq: KYMPMLCQDSSGEVSCQCQLHPPR [H5M]
endpoint_result: 2.15

seq: KYMPHLCQDSSCEVSCQCQLHPPR [G12C]
endpoint_result: 2.38

seq: KYMPHLCQDSSGEVNCQCQLHPPR [S15N]
endpoint_result: 2.62

seq: KYMPHLCQDSSGEVSCQCELHPPR [Q19E]
endpoint_result: 3.08

seq: KYMPHHCQDSSGEVSCQCQLHPPR [L6H]
endpoint_result: 2.1

seq: KYMPHLPQDSSGEVSCQCQLHPPR [C7P]
endpoint_result: 1.77

seq: KYMPHLCQDSSGENSCQCQLHPPR [V14N]
endpoint_result: 2.46
